Known residual activity of a selection of molecules
# target_or_test_system: AXL (human) (UniProt P30530)
# Sequence (P30530 whole entry, looked up): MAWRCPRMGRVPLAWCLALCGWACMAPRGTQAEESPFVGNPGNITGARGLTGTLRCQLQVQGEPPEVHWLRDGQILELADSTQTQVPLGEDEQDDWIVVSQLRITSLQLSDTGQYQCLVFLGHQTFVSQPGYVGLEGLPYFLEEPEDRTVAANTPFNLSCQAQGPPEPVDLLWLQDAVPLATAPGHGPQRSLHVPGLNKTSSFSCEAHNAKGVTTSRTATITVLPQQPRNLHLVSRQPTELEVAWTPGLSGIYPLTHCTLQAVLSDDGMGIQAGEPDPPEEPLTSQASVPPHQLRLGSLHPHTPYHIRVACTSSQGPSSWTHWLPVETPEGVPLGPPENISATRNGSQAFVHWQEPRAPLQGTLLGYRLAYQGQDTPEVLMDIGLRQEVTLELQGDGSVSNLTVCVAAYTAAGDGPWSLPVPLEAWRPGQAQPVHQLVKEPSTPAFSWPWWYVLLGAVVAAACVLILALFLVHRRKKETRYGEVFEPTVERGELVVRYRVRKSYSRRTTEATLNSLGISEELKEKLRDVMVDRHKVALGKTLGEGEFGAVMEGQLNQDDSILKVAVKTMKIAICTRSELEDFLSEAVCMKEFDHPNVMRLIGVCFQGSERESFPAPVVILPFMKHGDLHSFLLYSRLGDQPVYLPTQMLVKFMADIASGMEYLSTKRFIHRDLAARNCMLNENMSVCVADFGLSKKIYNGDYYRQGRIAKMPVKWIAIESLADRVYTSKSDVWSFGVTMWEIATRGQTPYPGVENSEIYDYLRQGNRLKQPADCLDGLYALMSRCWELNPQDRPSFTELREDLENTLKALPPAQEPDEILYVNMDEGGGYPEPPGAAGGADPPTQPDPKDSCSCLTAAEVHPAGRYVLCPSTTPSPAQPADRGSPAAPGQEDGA
# test_name: radiometric filter-binding kinase assay, Kinase HotSpot
# cond: compound 0.5 µM; ATP 10 µM
measurement_name: residual activity (%)

>>> reported_measurement("CO[C@@H]1[C@H](N(C)C(=O)c2ccccc2)C[C@H]2O[C@]1(C)n1c3ccccc3c3c4c(c5c6ccccc6n2c5c31)C(=O)NC4")
106
>>> reported_measurement("O=C1NC(=O)c2c1c1c3ccccc3[nH]c1n1cncc21")
91.7
>>> reported_measurement("CC(C)(C)c1cc(C=C(C#N)C#N)cc(Br)c1O")
103
>>> reported_measurement("O=C1c2ccccc2-c2nc3nnnn3nc21")
10.3
>>> reported_measurement("CN(C)S(=O)(=O)c1ccc2c(c1)/C(=C/c1cc3c([nH]1)CCCC3)C(=O)N2")
39.7
>>> reported_measurement("O=C(c1cc2cc(O)ccc2[nH]1)c1cc2cc(O)ccc2[nH]1")
90.1
>>> reported_measurement("Fc1ccc(-c2nc3n(c2-c2ccncc2)CCS3)cc1")
95.8
>>> reported_measurement("Cc1cncc2cccc(S(=O)(=O)N3CCCN(C(=O)CN)C[C@H]3C)c12")
98.8
>>> reported_measurement("Cc1cccc(-c2nc(C(C)(C)C)[nH]c2-c2ccc3c(c2)OCO3)n1")
101
>>> reported_measurement("CS(=O)(=O)CCNCc1ccc(-c2ccc3ncnc(Nc4ccc(OCc5cccc(F)c5)c(Cl)c4)c3c2)o1")
96.2
>>> reported_measurement("COc1ccc(Cl)cc1NC(=O)Nc1cc(C)nc2ccccc12")
94
>>> reported_measurement("O=C1Nc2ccc(Br)cc2/C1=C\\c1cc2c([nH]1)CCCC2")
90
>>> reported_measurement("COc1cc2ncnc(Nc3ccc(OCc4ccccc4)cc3)c2cc1OC")
94.8
>>> reported_measurement("CN(C)c1ccc(/C=C2\\C(=O)Nc3ccccc32)cc1")
93.8
>>> reported_measurement("NC(=O)c1cccc(-c2cc(Nc3ccc(OC(F)(F)F)cc3)ncn2)c1")
101
>>> reported_measurement("COc1ccc2c(c1)c(C1=C(c3c[nH]c4ccccc34)C(=O)NC1=O)cn2CCCN(C)C")
98.7
>>> reported_measurement("COc1cc2ncnc(Nc3ccc(Oc4ccccc4)cc3)c2cc1OC")
98.2
>>> reported_measurement("COc1ccc2c(c1)/C(=C/c1cnc[nH]1)C(O)=N2")
94.3
>>> reported_measurement("Ic1cccc(CSc2nnc(-c3ccncc3)o2)c1")
99.2
>>> reported_measurement("N#C/C(=C\\c1ccc(O)c(O)c1)C(=O)NCc1ccccc1")
95.1
>>> reported_measurement("CN(C)CCCn1cc(C2=C(c3c[nH]c4ccccc34)C(=O)NC2=O)c2ccccc21")
100
>>> reported_measurement("Cc1nc(-c2ccccc2)c(-c2ccncc2)o1")
91.1

Entry source: the kinase profiling compilation of Christmann-Franck et al. (2016)
